# Target: HLA DRB1*0101 (human)
# Condition notes: modification not given
Assay endpoint: pIC50
Scale: pIC50 equals -log10([C]), with [C] in mol/L.

# get_value(readout='pIC50', item= APAAPANPGLII [34.2] ) 5.90

meta.source: patent US20160317649A1
